# Tested On: hGIP-R (Homo sapiens)
# Construct: expressed in transfected cells; host or cells: HEK-293 clonal cell lines
# Run Description: Functional hGIP-R Assay (cAMP formation, HTRF)
# Format: cell-based
# Cond: cAMP potency; HEK-293 cells expressing hGIP-R; incubated at 37° C. in the presence of 0.1% bovine casein; geometric mean; read-out: Human GIP-R EC50, nM (SEM, n)
Mark Yes only when EC50 stays strictly below 40 nM. Values equal to the cut-off are No.

Examples with answers:
- Cn1cc2cc(-c3ccc([C@H]4C[C@@]45CCN([C@H](Cc4cnn(C(F)F)c4)C(=O)NC(C)(C)Cn4nc(C(F)(F)F)cc4-c4cccn(CC#N)c4=O)C5=O)cc3)cnc2n1: Yes
- Cc1ncc(-c2cc(C(F)(F)F)nn2CC(C)(C)NC(=O)[C@@H](Cc2cnn(C(F)F)c2)N2CC[C@@]3(C[C@@H]3c3ccc(-c4cnc5nn(C6CC6)cc5c4)nc3C)C2=O)cn1: Yes
- CC(C)(Cn1cc(C(F)(F)F)cn1)NC(=O)[C@@H](Cc1cnc2ncccn12)NC(=O)[C@H]1C[C@@H]1c1ccc(NC(=O)C2CC(F)(F)C2)cc1: No
- Cn1cc2cc(-c3ccc([C@H]4C[C@@]45CCN([C@H](Cc4cnn(C(F)F)c4)C(=O)NC(C)(C)Cn4nc(C(F)(F)F)cc4-c4cn(C)c(=O)c6ccnn46)C5=O)cc3)cnc2n1: Yes
- Cn1cc(C[C@@H](NC(=O)[C@H]2C[C@@H]2c2ccc(-c3cnc4nn(C)cc4c3)cc2)C(=O)NC(C)(C)Cn2nc(C(F)(F)F)cc2-c2n[nH]c(=O)s2)cn1: Yes

Confirm or reject: EC50 of [2H]C([2H])([2H])n1cc(C[C@H](C(=O)NC(C)(C)Cn2nc(C(F)(F)F)cc2-c2cnc(C)nc2)N2CC[C@@]3(C[C@@H]3c3ccc(-c4cnc5nc(C)cn5c4)cc3Cl)C2=O)cn1 lies strictly below 40 nM
Yes

Problem: For the compound CN(C(=O)[C@H]1C[C@@H]1c1ccc(-c2cnc3nn(C)cc3c2)cc1F)[C@H](Cc1cnn(C)c1)C(=O)NC(C)(C)Cn1nc(C(F)(F)F)cc1-c1ccc(=O)n(C)c1 , is EC50 under 40 nM?
No

Does the reported EC50 of the following compound sit strictly below 40 nM? CC(C)(Cn1cc(C(F)(F)F)cn1)NC(=O)[C@@H](Cc1cnc2ncccn12)NC(=O)[C@H]1C[C@@H]1c1ccc(-c2cnc3nccn3c2)cc1
No

Here's an entry: Cn1cc2cc(-c3ccc([C@H]4C[C@@]45CCN([C@H](Cc4cnn(C(F)F)c4)C(=O)NC(C)(C)Cn4nc(C(F)(F)F)cc4-c4ccc(OC(F)F)nn4)C5=O)cc3)cnc2n1 . Is its EC50 below 40 nM?
No

Lab note: confirm whether the reported EC50 for this compound is below 40 nM, equality not counting. compound: CC(C)(Cn1ccc(C(F)(F)F)n1)NC(=O)[C@@H](Cc1cnc2ncccn12)NC(=O)[C@H]1C[C@@H]1c1ccc(-c2cnc3nccn3c2)cc1
No

Say whether its EC50 is strictly beneath 40 nM. Entry: Cc1ncc(-c2cc(C(F)(F)F)nn2CC(C)(C)NC(=O)[C@@H](Cc2cnn(C(F)F)c2)N2CCC3(CC3c3ccc(-c4cnc5nn(C)cc5c4)nc3C)C2=O)cn1 (single isomer, unassigned; isomer 1)
Yes

Consider [2H]C([2H])([2H])n1cc(C[C@H](C(=O)NC(C)(C)Cn2nc(C(F)(F)F)cc2-c2ccc(C(C)(C)O)nc2)N2CC[C@@]3(C[C@@H]3c3ccc(-c4cnc5nc(C6CC6)cn5c4)nc3C)C2=O)cn1 . Does its EC50 lie strictly below 40 nM?
Yes

Input Cn1cc(C[C@@H](NC(=O)[C@H]2C[C@@H]2c2ccc(-c3cnc4nn(C)cc4c3)cc2)C(=O)NC(C)(C)Cn2nc(C(F)(F)F)cc2-c2cnn(C)n2)cn1 ; condition: EC50 strictly below 40 nM. Does it hold?
No

Below 40 nM on EC50? Entry Cn1cc2cc(-c3ccc([C@H]4C[C@@]45CCN([C@H](Cc4cnn(C(F)F)c4)C(=O)NC(C)(C)Cn4nc(C(F)(F)F)cc4-c4ccc(=O)n(C)c4)C5=O)cc3)cnc2n1
Yes

* * *

# Tested On: hGIP-R (Homo sapiens, UniProt P48546)
# Construct: expressed in transfected cells; host or cells: HEK-293 clonal cell lines
# Run Description: Functional hGIP-R Assay (cAMP formation, HTRF)
# Type: cell-based
# Cond: cAMP efficacy; percent of maximal response to GIP(1-42)OH; 37° C., 0.1% bovine casein; arithmetic mean ± SEM
Exercise: for every item that follows, state its recorded Emax.

• Cc1cn2cc(-c3ccc(C4CC45CCN([C@H](Cc4cnn(C(F)F)c4)C(=O)NC(C)(C)Cn4nc(C(F)(F)F)cc4-c4cnc(C)nc4)C5=O)c(C)n3)cnc2n1 (single isomer, unassigned; isomer 1) = 50.8%

Give Emax for each listed item.
1. Cn1cc2cc(-c3ccc([C@H]4C[C@@]45CCN([C@H](Cc4cnn(C(F)F)c4)C(=O)NC(C)(C)Cn4nc(C(F)(F)F)cc4-c4ccc(OC(F)F)nn4)C5=O)cc3)cnc2n1
2. CC(C)(Cn1cc(C(F)(F)F)cn1)NC(=O)[C@@H](Cc1cnc2ncccn12)NC(=O)[C@H]1C[C@@H]1c1ccc(-c2cnc3nc(C4CC4)cn3c2)cc1
3. [2H]C([2H])([2H])n1cc(C[C@H](C(=O)NC(C)(C)Cn2nc(C(F)(F)F)cc2-c2cnc(C(C)(C)OP(=O)(O)O)nc2)N2CC[C@@]3(C[C@@H]3c3ccc(-c4cnc5nn(C)cc5c4)cc3Cl)C2=O)cn1

74.6%
97.2%
90.3%

Report Emax, nothing else, for this compound: Cc1cn2cc(-c3ccc([C@H]4C[C@@]45CCN([C@H](Cc4cnn(C(F)F)c4)C(=O)NC(C)(C)Cn4nc(C(F)(F)F)cc4-c4ccc(C(C)(C)O)nc4)C5=O)c(C)n3)cnc2n1
39.9%

* * *

# Tested On: hGIP-R (Homo sapiens)
# Construct: expressed in transfected cells; host or cells: HEK-293 clonal cell lines
# Sequence (P48546 22-466): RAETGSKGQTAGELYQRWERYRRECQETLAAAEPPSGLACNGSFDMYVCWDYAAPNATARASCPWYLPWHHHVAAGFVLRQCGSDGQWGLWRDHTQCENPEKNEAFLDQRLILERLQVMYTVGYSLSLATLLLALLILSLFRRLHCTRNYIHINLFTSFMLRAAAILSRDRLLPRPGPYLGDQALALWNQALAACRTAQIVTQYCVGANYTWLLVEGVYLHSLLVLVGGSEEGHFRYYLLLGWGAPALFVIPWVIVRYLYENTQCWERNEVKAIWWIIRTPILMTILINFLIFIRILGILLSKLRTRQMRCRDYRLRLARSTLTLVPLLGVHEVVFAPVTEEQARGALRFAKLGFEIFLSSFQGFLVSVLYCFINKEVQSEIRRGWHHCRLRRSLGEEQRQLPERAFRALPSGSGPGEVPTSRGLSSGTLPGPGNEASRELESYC
# Run Description: Functional hGIP-R Assay (cAMP formation, HTRF)
# Assay type: cell-based
# Cond: cAMP potency; HEK-293 cells expressing hGIP-R; incubated at 37° C. in the presence of 0.1% bovine casein; geometric mean; read-out: Human GIP-R EC50, nM (SEM, n)
Recorded Endpoint: EC50 (nM)
One number for each entry, in nM.

# count of solved cases: 5
- Cn1cc(C[C@@H](NC(=O)[C@H]2C[C@@H]2c2ccc(-c3cnc4nn(C)cc4c3)cc2)C(=O)NC(C)(C)Cn2nc(C(F)(F)F)cc2-c2ccc(=O)n(C)c2)cn1: 66.9
- Cn1cc(-c2ccc([C@H]3C[C@@]34CCN([C@H](Cc3cnn(C(F)F)c3)C(=O)NC(C)(C)Cn3nc(C(F)(F)F)cc3-c3cn[nH]n3)C4=O)c(Cl)c2)cnc1=O: 5.24
- [2H]C([2H])([2H])n1cc(C[C@H](C(=O)NC(C)(C)Cn2nc(C(F)(F)F)cc2-c2ccc(C(C)(C)O)nc2)N2CC[C@@]3(C[C@@H]3c3ccc(-c4cnc5nc(COC)cn5c4)cc3Cl)C2=O)cn1: 0.265
- CC(C)(Cn1cc(C(F)(F)F)cn1)NC(=O)[C@@H](Cc1cnc2ncccn12)NC(=O)C1CC1c1ccc(-c2cnc3nn(C(F)F)cc3c2)cn1 (single isomer, unassigned; isomer 2): 300
- COCc1cn2cc(-c3ccc([C@H]4C[C@@]45CCN([C@H](Cc4cnn(C(F)F)c4)C(=O)NC(C)(C)Cn4nc(C(F)(F)F)cc4-c4ccc(C(C)(C)O)nc4)C5=O)c(C)n3)cnc2n1: 1.81

Provide each entry's EC50 from the list below.
1. [2H]C([2H])([2H])n1cc(C[C@H](C(=O)NC(C)(C)Cn2nc(C(F)(F)F)cc2-c2cnc(C)nc2)N2CCC3(CC3c3ccc(-c4cnc5nn(C)cc5c4)nc3C(F)(F)F)C2=O)cn1 (single isomer, unassigned; isomer 1)
2. [2H]C([2H])([2H])n1cc(C[C@H](C(=O)NC(C)(C)Cn2nc(C(F)(F)F)cc2-c2cnc(C(C)(C)O)nc2)N2CC[C@@]3(C[C@@H]3c3ccc(-c4cnc5nc(C)cn5c4)cc3Cl)C2=O)cn1
3. Cc1nc(-c2cnc3nc(C4CC4)cn3c2)ccc1[C@H]1C[C@@]12CCN([C@H](Cc1cnn(C(F)F)c1)C(=O)NC(C)(C)Cn1nc(C(F)(F)F)cc1-c1cc(F)c(=O)n(C)c1)C2=O
4. Cc1cn2cc(-c3ccc([C@H]4C[C@@H]4C(=O)N[C@H](Cc4cnc5ncccn45)C(=O)NC(C)(C)Cn4cc(C(F)(F)F)cn4)cc3)cnc2n1

4.65
1.26
0.846
44.1
